Biological target: recombinant autotaxin (Homo sapiens)
Construct: made in house; host or cells: Hi5 insect cells (baculovirus)
Assay: Autotaxin test (enzyme test), Amplex Red fluorescence with LPC substrate
Type: biochemical
Conditions: 10 μM compound; autotaxin inhibition (enzyme test); read-out: % Control at 10 μM
Method: Autotaxin Inhibition (Enzyme Test) Autotaxin Test (Enzyme Test) The autotaxin activity is measured indirectly using Amplex Red reagent. Amplex Red is measured here as fluorogenic indicator for the H2O2 formed. […] The fluorescence is measured in a reaction-dependent kinetic mode in order that fluorescent signals from possible other fluorescent substances which are not involved in the reaction can be corrected out. […]
Threshold 40%. remaining activity at 10 µM below it: yes (1). remaining activity at 10 µM at it or above: no (0).

Use these answered entries as a reference point.
Cc1cccc(C(O)C(=O)N2CCN3C(=O)c4cc(-c5ccc(Cl)cc5)ccc4NC(=O)C3C2)c1 (stereo not shown) [Compound A44]: no (0)
CC(C)(C)COC(=O)N1CCN2C(=O)c3cc(-c4ccc(Cl)cc4)ccc3NC(=O)C2C1 (stereo not shown) [Compound A168]: no (0)
O=C1Nc2ccc(-c3ccc(Cl)cc3)cc2C(=O)N2CCN(C(=O)CC3CCCC3)CC12 (stereo not shown) [Compound A25]: yes (1)

Ask: Regarding CS(=O)(=O)N1CCN2C(=O)c3cc(-c4ccccc4F)ccc3NC(=O)[C@H]2C1 [Compound B1] , kindly confirm whether its remaining activity at 10 µM is beneath 40%.
Reply: no (0)

Ask: Regarding CN1CCN(C(=O)CN2C(=O)[C@H]3CN(C(=O)CC(C)(C)C)CCN3C(=O)c3cc(-c4ccc(Cl)cc4F)ccc32)CC1 [Compound A149] , kindly confirm whether its remaining activity at 10 µM is beneath 40%.
Reply: yes (1)

Ask: Regarding CC(C)(C)CC(=O)N1CCN2C(=O)c3cc(-c4ccc(C(F)(F)F)cc4F)ccc3NC(=O)C2C1 (stereo not shown) [Compound A84] , kindly confirm whether its remaining activity at 10 µM is beneath 40%.
Reply: yes (1)

Reference for the values: patent US20120115852A1
